Molecular target: JAK3 (Homo sapiens)
Sequence (P52333 1-1124): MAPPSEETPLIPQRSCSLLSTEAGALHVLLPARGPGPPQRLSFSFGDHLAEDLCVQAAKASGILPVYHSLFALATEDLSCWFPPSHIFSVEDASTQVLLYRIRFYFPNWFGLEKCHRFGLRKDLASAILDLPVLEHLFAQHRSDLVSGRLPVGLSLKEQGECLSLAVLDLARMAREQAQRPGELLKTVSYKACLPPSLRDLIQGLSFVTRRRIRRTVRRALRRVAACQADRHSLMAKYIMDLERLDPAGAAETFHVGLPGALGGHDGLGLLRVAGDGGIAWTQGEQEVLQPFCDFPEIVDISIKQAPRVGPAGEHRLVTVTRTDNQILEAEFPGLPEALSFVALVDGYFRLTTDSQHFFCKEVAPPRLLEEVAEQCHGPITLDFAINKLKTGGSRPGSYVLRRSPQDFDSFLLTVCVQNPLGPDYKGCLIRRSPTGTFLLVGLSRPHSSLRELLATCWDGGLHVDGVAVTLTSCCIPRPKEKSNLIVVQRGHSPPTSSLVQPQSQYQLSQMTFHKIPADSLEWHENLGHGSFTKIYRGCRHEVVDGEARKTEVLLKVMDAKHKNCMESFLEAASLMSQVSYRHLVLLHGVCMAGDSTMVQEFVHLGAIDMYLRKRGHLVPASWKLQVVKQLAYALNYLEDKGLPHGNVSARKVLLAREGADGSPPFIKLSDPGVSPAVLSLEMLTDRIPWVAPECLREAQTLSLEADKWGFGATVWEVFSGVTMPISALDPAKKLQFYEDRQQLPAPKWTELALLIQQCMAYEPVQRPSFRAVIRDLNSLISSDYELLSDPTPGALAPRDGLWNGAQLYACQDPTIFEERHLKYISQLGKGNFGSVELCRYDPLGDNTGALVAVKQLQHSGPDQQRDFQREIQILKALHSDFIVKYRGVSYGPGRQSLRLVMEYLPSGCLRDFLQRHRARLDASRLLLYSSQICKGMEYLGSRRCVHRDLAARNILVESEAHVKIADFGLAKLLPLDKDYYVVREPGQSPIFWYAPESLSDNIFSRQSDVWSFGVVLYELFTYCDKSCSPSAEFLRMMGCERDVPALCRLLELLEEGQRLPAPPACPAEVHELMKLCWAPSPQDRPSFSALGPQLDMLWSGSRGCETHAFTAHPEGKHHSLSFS
quantity.name: IC50 (nM)
Could you give me the number in nM? Just the number is fine.

Qu. Give a short answer stating reported IC50 for C=CC(=O)Nc1cc(Nc2cc(-c3cccc(NC(=O)c4cc5c(s4)CCCC5)c3C)cn(C)c2=O)ccc1N1CCN(CC)CC1 [CHMFL-BTK-85] .
Ans. 2720

----------
Assay: in vivo pharmacokinetic study
Design: species or system rats
Conditions: male, Sprague-Dawley, rat, plasma, iv; Rats, I.V. 1mg/kg; read-out: MRT (0- ∞)
quantity.name: MRT inf
# include the unit after the value

Qu. Give a short answer stating reported MRT inf for "C=CC(=O)Nc1cc(Nc2cc(-c3cccc(NC(=O)c4cc5c(s4)CCCC5)c3C)cn(C)c2=O)ccc1N1CCN(CC)CC1" .
Ans. 1.6 h

----------
Molecular target: HER2 (Homo sapiens)
Sequence (P04626 23-1255): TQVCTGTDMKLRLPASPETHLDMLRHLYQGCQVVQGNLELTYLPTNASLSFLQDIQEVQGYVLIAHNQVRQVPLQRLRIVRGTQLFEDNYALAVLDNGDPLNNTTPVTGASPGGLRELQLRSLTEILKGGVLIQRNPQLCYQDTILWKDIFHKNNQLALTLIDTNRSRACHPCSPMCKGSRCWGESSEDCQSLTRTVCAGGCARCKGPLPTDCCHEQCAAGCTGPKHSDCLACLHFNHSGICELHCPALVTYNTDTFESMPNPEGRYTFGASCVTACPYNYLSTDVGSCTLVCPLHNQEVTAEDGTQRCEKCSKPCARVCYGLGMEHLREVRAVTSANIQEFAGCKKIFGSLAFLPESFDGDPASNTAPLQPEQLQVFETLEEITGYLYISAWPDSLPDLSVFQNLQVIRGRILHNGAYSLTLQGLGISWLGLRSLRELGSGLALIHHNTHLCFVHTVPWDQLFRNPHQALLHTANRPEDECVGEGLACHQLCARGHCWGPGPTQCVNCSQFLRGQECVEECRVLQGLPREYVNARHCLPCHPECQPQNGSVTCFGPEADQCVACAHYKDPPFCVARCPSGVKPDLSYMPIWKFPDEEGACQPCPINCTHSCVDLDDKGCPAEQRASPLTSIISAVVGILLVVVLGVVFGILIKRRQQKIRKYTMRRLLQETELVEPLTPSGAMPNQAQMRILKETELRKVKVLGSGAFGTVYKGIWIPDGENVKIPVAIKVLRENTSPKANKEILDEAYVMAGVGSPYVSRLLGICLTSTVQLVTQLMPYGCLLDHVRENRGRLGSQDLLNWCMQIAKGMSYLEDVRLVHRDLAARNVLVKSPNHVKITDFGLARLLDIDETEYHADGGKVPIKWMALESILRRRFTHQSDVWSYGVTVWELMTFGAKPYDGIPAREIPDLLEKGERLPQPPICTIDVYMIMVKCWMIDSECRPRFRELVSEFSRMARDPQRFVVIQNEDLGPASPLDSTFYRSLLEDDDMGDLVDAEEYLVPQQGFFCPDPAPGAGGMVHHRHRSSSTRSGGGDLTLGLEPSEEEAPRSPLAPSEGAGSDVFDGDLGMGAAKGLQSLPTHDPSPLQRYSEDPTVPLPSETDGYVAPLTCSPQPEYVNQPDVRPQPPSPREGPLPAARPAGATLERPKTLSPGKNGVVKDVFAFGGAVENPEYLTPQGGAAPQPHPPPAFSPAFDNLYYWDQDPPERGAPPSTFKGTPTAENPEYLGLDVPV
quantity.name: IC50

Qu. Give a short answer stating reported IC50 for C=CC(=O)Nc1cc(Nc2cc(-c3cccc(NC(=O)c4cc5c(s4)CCCC5)c3C)cn(C)c2=O)ccc1N1CCN(CC)CC1 [CHMFL-BTK-85] .
Ans. > 10 µM

----------
Test: in vivo pharmacokinetic study
Parameters: species or system rats
Conditions: male, Sprague-Dawley, rat, plasma, po; Rats, P.O. 10mg/kg
quantity.name: half-life (h)
Could you give me the number in h? Just the number is fine.

Qu. Give a short answer stating reported half-life for "C=CC(=O)Nc1cc(Nc2cc(-c3cccc(NC(=O)c4cc5c(s4)CCCC5)c3C)cn(C)c2=O)ccc1N1CCN(CC)CC1" .
Ans. 2.9

----------
quantity.name: IC50

Qu. Fetch value of IC50 on BLK (Homo sapiens) for "C=CC(=O)Nc1cc(Nc2cc(-c3cccc(NC(=O)c4cc5c(s4)CCCC5)c3C)cn(C)c2=O)ccc1N1CCN(CC)CC1" .
Sequence (P51451 whole entry): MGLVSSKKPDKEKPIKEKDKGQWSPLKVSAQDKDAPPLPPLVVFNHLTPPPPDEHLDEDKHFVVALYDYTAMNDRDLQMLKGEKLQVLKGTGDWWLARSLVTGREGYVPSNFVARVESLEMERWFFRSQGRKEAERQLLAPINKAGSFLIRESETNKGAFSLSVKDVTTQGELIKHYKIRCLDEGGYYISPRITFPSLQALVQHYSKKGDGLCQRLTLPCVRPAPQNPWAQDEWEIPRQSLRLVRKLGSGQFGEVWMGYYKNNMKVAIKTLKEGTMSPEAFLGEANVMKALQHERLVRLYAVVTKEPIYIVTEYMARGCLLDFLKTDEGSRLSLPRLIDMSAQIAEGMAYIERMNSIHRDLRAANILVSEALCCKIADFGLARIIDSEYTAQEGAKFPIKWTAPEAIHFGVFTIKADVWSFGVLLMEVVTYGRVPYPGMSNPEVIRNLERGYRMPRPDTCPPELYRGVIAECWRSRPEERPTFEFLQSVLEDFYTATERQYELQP
Ans. > 10 µM

----------
Assay: in vivo pharmacokinetic study
Design: species or system rats
Conditions: male, Sprague-Dawley, rat, plasma, iv; Rats, I.V. 1mg/kg
quantity.name: AUC(0-inf) (ng·h/mL)
Could you give me the number in ng·h/mL? Just the number is fine.

Qu. Give a short answer stating reported AUC(0-inf) for "C=CC(=O)Nc1cc(Nc2cc(-c3cccc(NC(=O)c4cc5c(s4)CCCC5)c3C)cn(C)c2=O)ccc1N1CCN(CC)CC1" .
Ans. 766

----------
Assay: in vivo pharmacokinetic study
Parameters: species or system rats
Conditions: male, Sprague-Dawley, rat, plasma, po; Rats, P.O. 10mg/kg
quantity.name: AUC(0-inf)
# include the unit after the value

Qu. Give a short answer stating reported AUC(0-inf) for C=CC(=O)Nc1cc(Nc2cc(-c3cccc(NC(=O)c4cc5c(s4)CCCC5)c3C)cn(C)c2=O)ccc1N1CCN(CC)CC1 [CHMFL-BTK-85] .
Ans. 2160 ng·h/mL

----------
Assay: in vivo pharmacokinetic study
Parameters: species or system rats
Conditions: male, Sprague-Dawley, rat, plasma, po; Rats, P.O. 10mg/kg; read-out: MRT (0- ∞)
quantity.name: MRT inf (h)
Could you give me the number in h? Just the number is fine.

Qu. Give a short answer stating reported MRT inf for "C=CC(=O)Nc1cc(Nc2cc(-c3cccc(NC(=O)c4cc5c(s4)CCCC5)c3C)cn(C)c2=O)ccc1N1CCN(CC)CC1" .
Ans. 6.5

----------
Assay: in vivo pharmacokinetic study
Design: species or system rats
Conditions: male, Sprague-Dawley, rat, plasma, po; Rats, P.O. 10mg/kg
quantity.name: bioavailability (%)
Could you give me the number in %? Just the number is fine.

Qu. Give a short answer stating reported bioavailability for C=CC(=O)Nc1cc(Nc2cc(-c3cccc(NC(=O)c4cc5c(s4)CCCC5)c3C)cn(C)c2=O)ccc1N1CCN(CC)CC1 [CHMFL-BTK-85] .
Ans. 29
